Target: ATP-binding cassette transporter A1 (ABCA1) (UniProt P41233 1-2261, limits assumed)
Sequence (P41233 whole entry): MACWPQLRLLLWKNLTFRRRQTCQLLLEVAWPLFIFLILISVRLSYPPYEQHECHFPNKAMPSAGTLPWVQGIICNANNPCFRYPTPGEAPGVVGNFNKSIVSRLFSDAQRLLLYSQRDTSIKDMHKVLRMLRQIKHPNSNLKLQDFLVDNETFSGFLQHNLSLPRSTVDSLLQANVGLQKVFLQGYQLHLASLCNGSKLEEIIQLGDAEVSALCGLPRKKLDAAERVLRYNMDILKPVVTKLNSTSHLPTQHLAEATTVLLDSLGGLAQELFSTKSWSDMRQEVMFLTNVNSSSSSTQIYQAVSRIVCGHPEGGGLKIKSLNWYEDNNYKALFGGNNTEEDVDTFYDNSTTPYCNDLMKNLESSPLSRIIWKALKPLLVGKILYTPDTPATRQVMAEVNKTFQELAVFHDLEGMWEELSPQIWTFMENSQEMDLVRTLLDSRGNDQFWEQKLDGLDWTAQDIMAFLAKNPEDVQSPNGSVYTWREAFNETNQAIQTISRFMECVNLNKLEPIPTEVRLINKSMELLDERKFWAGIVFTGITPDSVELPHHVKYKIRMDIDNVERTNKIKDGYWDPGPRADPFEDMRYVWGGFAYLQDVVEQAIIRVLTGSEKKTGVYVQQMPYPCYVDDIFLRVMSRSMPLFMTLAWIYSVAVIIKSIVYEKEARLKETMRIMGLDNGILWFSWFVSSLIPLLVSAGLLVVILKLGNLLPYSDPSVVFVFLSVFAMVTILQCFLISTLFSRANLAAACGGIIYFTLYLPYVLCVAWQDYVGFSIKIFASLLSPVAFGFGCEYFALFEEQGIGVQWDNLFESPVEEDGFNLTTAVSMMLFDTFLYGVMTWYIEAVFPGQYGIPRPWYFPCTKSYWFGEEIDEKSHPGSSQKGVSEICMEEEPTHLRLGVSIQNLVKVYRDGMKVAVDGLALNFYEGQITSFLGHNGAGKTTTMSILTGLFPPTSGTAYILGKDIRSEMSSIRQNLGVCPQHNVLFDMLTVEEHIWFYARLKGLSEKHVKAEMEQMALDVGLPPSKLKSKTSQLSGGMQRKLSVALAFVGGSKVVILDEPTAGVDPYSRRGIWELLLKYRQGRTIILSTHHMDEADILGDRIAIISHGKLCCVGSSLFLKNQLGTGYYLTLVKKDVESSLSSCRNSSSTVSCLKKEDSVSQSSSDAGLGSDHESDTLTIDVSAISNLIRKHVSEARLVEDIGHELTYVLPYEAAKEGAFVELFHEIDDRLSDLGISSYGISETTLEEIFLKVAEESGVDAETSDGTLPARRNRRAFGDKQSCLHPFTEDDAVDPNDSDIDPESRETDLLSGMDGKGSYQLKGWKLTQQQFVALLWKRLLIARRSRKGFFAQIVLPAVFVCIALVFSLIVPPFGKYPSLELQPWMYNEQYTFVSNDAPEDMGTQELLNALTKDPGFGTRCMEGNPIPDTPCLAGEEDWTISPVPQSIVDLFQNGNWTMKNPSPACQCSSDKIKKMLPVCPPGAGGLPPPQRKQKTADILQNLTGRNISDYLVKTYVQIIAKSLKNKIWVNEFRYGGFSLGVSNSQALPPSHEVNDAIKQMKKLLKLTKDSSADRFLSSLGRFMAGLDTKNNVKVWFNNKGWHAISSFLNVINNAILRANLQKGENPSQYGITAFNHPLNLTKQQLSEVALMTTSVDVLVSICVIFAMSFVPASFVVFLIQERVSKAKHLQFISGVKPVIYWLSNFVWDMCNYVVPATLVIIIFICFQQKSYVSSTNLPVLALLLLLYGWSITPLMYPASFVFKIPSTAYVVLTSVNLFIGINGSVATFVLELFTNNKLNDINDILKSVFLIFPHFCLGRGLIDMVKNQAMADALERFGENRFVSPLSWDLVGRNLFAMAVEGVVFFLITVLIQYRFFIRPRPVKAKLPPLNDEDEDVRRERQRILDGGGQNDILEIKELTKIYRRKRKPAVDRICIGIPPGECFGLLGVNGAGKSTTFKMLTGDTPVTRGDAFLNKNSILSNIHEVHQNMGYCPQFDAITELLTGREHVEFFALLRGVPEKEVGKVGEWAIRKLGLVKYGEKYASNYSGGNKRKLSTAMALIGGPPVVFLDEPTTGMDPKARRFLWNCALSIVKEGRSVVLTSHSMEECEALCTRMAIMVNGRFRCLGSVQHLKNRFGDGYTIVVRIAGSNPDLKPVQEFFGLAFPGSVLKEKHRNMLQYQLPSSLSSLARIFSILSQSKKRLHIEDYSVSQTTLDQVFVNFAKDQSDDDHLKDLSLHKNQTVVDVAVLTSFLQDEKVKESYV
Assay: cell-based or functional assay
Would you kindly list % cholesterol efflux/4 hours at 10 µg/ml for each of these binders?
Give the value, in units of %, as a plain number.

For this binder ( DLRDRLDAWFDLFRDFLDRF [N1154-5] ), measured % cholesterol efflux/4 hours at 10 µg/ml is 5.29

For this binder ( ELRDKLEAWFDLFREFLERF [N1154-2] ), measured % cholesterol efflux/4 hours at 10 µg/ml is 2.14

For this binder ( DLRDKLDAWFDLFRDFLDRF [N1154-3] ), measured % cholesterol efflux/4 hours at 10 µg/ml is 2.12

For this binder ( ELRERLEAWFELFREFLERF [N1154-1] ), measured % cholesterol efflux/4 hours at 10 µg/ml is 4.44

For this binder ( ELRDRLEAWFDLFREFLERF [N1154-4] ), measured % cholesterol efflux/4 hours at 10 µg/ml is 5.02

Reference source: patent US20110190196A1
